experiment.description: chemical genetic growth profiling, strain panel (AID 1159580);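 note: tested at 20 µM; growth read once vehicle control cultures reached saturation at 30 °C; 1 = growth at the plate median or of vehicle wells; lower values mean less growth of the strain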
assay.context: S. cerevisiae deletion strains, growth OD, locus YPR163C, strain tif3, hits give low values
In all, about 5,500 compounds went through this assay and about 2,000 (36%) were called active. Another 18% or so got no clear call; they are omitted. The list shows a part of the results.
1.0 if normalized growth is below 1. 0.0 if not; exact matches included in 0.0.

{"compound": "CN(Cc1cc(Br)cc(Br)c1N)C1CCCCC1", "qualitative.label": 0.0}
{"compound": "COc1ccccc1N1CCNCC1", "qualitative.label": 0.0}

Let us examine a further case.
**Q:** Threshold test, normalized growth < 1: COc1cc2c3cc1Oc1cc(ccc1O)OC1c4c(cc(OC)c(O)c4Oc4ccc(cc4)CC3N(C)CC2)CCN1C (stereo unspecified)
**A:** 1.0
